Tested on: Plasmodium falciparum
Assay: Screen against P. falciparum Asexual Blood Stage (ABS), at 5uM
Type: functional, Dd2
Details: tested at 5 uM
Screen size: about 65,000 compounds; about 2,100 (3.2%) showed an effect of 50% or more. The median lay at about -52%. What follows is part of a selection rich in strong results, with near analogues and random picks from the rest.
Label t when INHIBITION < -50%; otherwise f.

[
  {
    "compound": "Cc1sc2nc(C(F)(F)F)nc(N3CCCN(C)CC3)c2c1C",
    "group": "f"
  },
  {
    "compound": "Cc1cccc(Nc2cccc(C3CCCN(Cc4ncc[nH]4)C3)n2)n1 (stereo not drawn)",
    "group": "f"
  },
  {
    "compound": "CN1CCN(S(=O)(=O)c2ccccc2)Cc2cccnc21",
    "group": "f"
  },
  {
    "compound": "NCC1Cc2cccc(-c3ccc(O)c(F)c3)c2O1 (stereo not drawn)",
    "group": "f"
  },
  {
    "compound": "Fc1ccc(COCC2CCN(Cc3ccccn3)CC2)cc1",
    "group": "f"
  },
  {
    "compound": "c1ccc(CN2C[C@@H]3COC[C@]3(COCc3ccncc3)C2)nc1",
    "group": "f"
  },
  {
    "compound": "CC(=O)N1C[C@H]2CNC[C@@]2(C(=O)NCCCOc2cccnc2)C1",
    "group": "t"
  },
  {
    "compound": "Cc1cccc(CN2C[C@H](NS(C)(=O)=O)[C@@H]3OCCC[C@@H]32)n1",
    "group": "t"
  },
  {
    "compound": "CN(C)C(=O)CN1CCN(c2ncccn2)[C@@H]2CS(=O)(=O)C[C@@H]21",
    "group": "t"
  },
  {
    "compound": "Cc1cccc(CO[C@@H]2CC[C@H]3[C@H]2OCCN3Cc2ccsc2)n1",
    "group": "f"
  },
  {
    "compound": "CCc1cc(CN2C[C@@H]3CC[C@H]2CN(C2Cc4ccccc4C2)C3)on1",
    "group": "f"
  },
  {
    "compound": "O=C(Cn1ccc2c(Cl)cccc21)N1CCC2(CC1)OCCO2",
    "group": "t"
  },
  {
    "compound": "CN(C)CCNC(=O)c1ccn(-c2ccc3ccccn23)n1",
    "group": "f"
  },
  {
    "compound": "CSc1ncc(CN2C[C@@H]3CC[C@H]2CN(C2CCOCC2)C3)cn1",
    "group": "f"
  },
  {
    "compound": "O=C(Cn1ccc2ccc(Br)cc21)NC[C@@H]1CCCN2CCCC[C@H]12",
    "group": "f"
  },
  {
    "compound": "O=C(NCC(F)(F)F)C1=NOC2(CCCNC2)C1 (stereo not drawn)",
    "group": "t"
  },
  {
    "compound": "Cc1[nH]c2c(F)cccc2c1CC(=O)N1CCN(C2CCSCC2)CC1",
    "group": "f"
  },
  {
    "compound": "CC(C)OCCNC1(c2ccc(Cl)cc2)CCOCC1",
    "group": "f"
  },
  {
    "compound": "CN1CCCC1CNC(=O)CCCOc1cccc(Br)c1 (stereo not drawn)",
    "group": "f"
  },
  {
    "compound": "COc1cccc(CNCc2ccc(F)cc2Cl)c1O",
    "group": "f"
  },
  {
    "compound": "Cc1noc(C)c1CN1CC[C@H]2O[C@@H](C(=O)N3CCCC3)CC[C@H]21",
    "group": "t"
  },
  {
    "compound": "CC(=O)c1cc(C(=O)N2CC[C@H]3CC[C@@H](C2)N3C)c(=O)[nH]c1C",
    "group": "t"
  },
  {
    "compound": "O=C(c1ccccc1-n1cnnn1)N1CCC2(CC1)OCCO2",
    "group": "t"
  }
]
